Attribute: Kd
- target_under_test: T1, huNABA-avi-his (hybrid protein N-A1-B3-A2: N and A1 domains of human BGP, B3 domain of human CEA, A2 domain … (human, biotinylated at the avi tag (in vivo, co-transfected biotin ligase)))
- T1 construct: also called NABA-avi-his reagent; biotinylated NABA
- T1 chain: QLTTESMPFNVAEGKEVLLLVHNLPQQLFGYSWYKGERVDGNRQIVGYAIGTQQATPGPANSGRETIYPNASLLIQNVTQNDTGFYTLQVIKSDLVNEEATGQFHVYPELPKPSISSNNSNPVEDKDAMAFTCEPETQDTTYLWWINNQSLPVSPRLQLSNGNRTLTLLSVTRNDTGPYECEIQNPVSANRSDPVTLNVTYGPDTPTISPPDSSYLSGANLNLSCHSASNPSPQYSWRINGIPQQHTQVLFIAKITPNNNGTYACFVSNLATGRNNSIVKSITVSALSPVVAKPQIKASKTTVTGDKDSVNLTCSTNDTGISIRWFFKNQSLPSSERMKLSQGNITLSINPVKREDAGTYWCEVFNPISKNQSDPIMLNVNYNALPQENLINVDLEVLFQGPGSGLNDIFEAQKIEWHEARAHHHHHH
- protocol_description: Biacore on immobilized NABA-avi-his; Bivalent Affinity
property_name: Kd (nM)

INSERT INTO results (binder, property_name, value_reported) VALUES
  ('H4E9 x 3A1 (antibody, V domains shown, bivalent form) VH: QVQLVQSGSELKKPGASVKVSCKASGYTFTEFGMNWVRQAPGQGLEWMGWINTKTGEATYIEEFKGRFVFSLDTSVSTAYLQISSLKAEDTAVYYCARWDFYDYVEAMDYWGQGTTVTVSS VL: DIQMTQSPSSLSASVGDRVTITCKASANVGNNVAWYQQKPGKAPKLLIYLASNRSGGVPSRFSGSGSGTDFTLTISSLQPEDFATYYCHQYYTYPLFTFGQGTKLEIKR', 'Kd', 0.55),
  ('H3 Full (5) 19 x 2F1 (bivalent) (antibody, V domains shown, bivalent form of the clone; copies: 2 + 2) VH: QVQLVQSGSELKKPGASVKVSCKASGYTFTEFGMSWVRQAPGQGLEWMGWINTKTGEATYVEEFKGRFVFSLDTSVSTAYLQISSLKAEDTAVYYCARWDAFEYVKALDYWGQGTTVTVSS VL: DIQMTQSPSSLSASVGDRVTITCKASAAVGTYVAWYQQKPGKAPKLLIYSASYRKRGVPSRFSGSGSGTDFTLTISSLQPEDFATYYCHQYYTYPLFTFGQGTKLEIK', 'Kd', 0.16),
  ('H4E9 x 2F1 (bivalent) (antibody, V domains shown, bivalent form of the clone) VH: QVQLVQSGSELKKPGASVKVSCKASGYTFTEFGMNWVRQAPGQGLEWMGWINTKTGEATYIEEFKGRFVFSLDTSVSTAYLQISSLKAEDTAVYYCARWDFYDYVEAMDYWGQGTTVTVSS VL: DIQMTQSPSSLSASVGDRVTITCKASAAVGTYVAWYQQKPGKAPKLLIYSASYRKRGVPSRFSGSGSGTDFTLTISSLQPEDFATYYCHQYYTYPLFTFGQGTKLEIKR', 'Kd', 0.452);
